Test system: #12
Test: cells
Design: species or system primary ALL patient cells; 3H-thymidine incorporation proliferation assay in primary ALL patient cells
Settings: 48 h; read-out: YKL-06-101 IC50
MEASURED_ATTRIBUTE: IC50

Challenge: # value lookup — system #12, readout IC50, item O=C1CCC(N2C(=O)c3cccc(NCCOCCOCCOCCOCCOCCC(=O)N4CCN(c5ccc(-n6c(=O)ccc7cnc8ccc(-c9ccc%10ccncc%10c9)cc8c76)cc5C(F)(F)F)CC4)c3C2=O)C(=O)N1 (stereo not shown)
Response given: > 10 µM

###

Tested on: #11
Assay: cells
Design: species or system primary ALL patient cells; 3H-thymidine incorporation proliferation assay in primary ALL patient cells
Details: 48 h; read-out: YKL-06-101 IC50
MEASURED_ATTRIBUTE: pIC50
Just so you know, pIC50 here is -log10 of the concentration in molar units; reply with that number alone.

Challenge: Record request: pIC50 value, item O=C1CCC(N2C(=O)c3cccc(NCCOCCOCCOCCOCCOCCC(=O)N4CCN(c5ccc(-n6c(=O)ccc7cnc8ccc(-c9ccc%10ccncc%10c9)cc8c76)cc5C(F)(F)F)CC4)c3C2=O)C(=O)N1 (stereo not shown)
Response given: 6.40
